- subject-of-test: HNF4alpha2 (COS-7 nuclear extract) (Homo sapiens, UniProt P41235 1-474)
- Sequence: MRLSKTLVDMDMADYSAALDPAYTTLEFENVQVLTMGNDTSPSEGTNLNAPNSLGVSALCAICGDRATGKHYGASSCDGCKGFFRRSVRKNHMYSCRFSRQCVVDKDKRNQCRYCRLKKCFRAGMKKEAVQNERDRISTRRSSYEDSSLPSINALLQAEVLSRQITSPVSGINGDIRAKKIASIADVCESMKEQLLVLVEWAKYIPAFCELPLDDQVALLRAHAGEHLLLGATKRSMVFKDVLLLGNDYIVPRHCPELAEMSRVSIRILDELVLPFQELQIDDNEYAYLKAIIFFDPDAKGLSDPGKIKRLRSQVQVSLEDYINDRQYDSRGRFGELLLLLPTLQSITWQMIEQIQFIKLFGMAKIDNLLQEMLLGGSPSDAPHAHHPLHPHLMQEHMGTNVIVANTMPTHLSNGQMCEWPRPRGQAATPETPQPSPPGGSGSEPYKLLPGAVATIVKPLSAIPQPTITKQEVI
- test-summary: protein-binding microarray; COS-7 nuclear extract on double-stranded Agilent 4x180k PBM; binding buffer, salt, pH and temperature not given in the material; high values mean tight binding
- condition-set: chain copies: 2; label: 3' end of strand 1 on the slide; dsDNA, one strand shown
Whole data set: some 18,000 sequences, median “log2 normalized intensity” near 0.39, cut for the highest 2% near 6.6. Shown is part of a subset that was picked to be rich in the highest values.
I'd appreciate it if you could supply binding signal values for the items below.
Express it in log2 normalized intensity; write the number only.

Q: Give me measured binding signal, please, for this sequence: GCCTGCCCCTCTGACCTCTCCTCCTACCTTGCCTAGGGAGATTAGAGTATCGGTCGA
Ans: 3.24

Q: Give me measured binding signal, please, for this sequence: GATAAGCGTATTTCAACCTTTGATCTATAAGCCTAGGGAGATTAGAGTATCGGTCGA
Ans: 5.94

Q: Give me measured binding signal, please, for this sequence: GATGATCATGGCTCACTGCACCTTGACCTCGCCTAGGGAGATTAGAGTATCGGTCGA
Ans: 7.34

Q: Give me measured binding signal, please, for this sequence: TAATCCCTGAGCCTGGACCTTGGAATGTCAGCCTAGGGAGATTAGAGTATCGGTCGA
Ans: 3.33

Q: Give me measured binding signal, please, for this sequence: CTTTGCCCCCAGCCTCTCACAGTAGCCCAGGCCTAGGGAGATTAGAGTATCGGTCGA
Ans: 4.6

Q: Give me measured binding signal, please, for this sequence: CACCCAGAACTTTGACCGTTTGATTATTTGGCCTAGGGAGATTAGAGTATCGGTCGA
Ans: 2.56

Q: Give me measured binding signal, please, for this sequence: GGACTCTGGAACCATCAGGATTCCAGAGGAGCCTAGGGAGATTAGAGTATCGGTCGA
Ans: 1.86

Q: Give me measured binding signal, please, for this sequence: TCATGGCTCACTGCACCTTGACCTCCTGGGGCCTAGGGAGATTAGAGTATCGGTCGA
Ans: 4.99

Q: Give me measured binding signal, please, for this sequence: TCATTCCCCTAGTATATTGGCTTGGCTGTGGCCTAGGGAGATTAGAGTATCGGTCGA
Ans: 2.58

Q: Give me measured binding signal, please, for this sequence: ATTTATCAAGATGAACTTTGACCCACCTACGCCTAGGGAGATTAGAGTATCGGTCGA
Ans: 8.26

Q: Give me measured binding signal, please, for this sequence: AAATCTGCCCAACCTTTGCCCCTGGAGGGAGCCTAGGGAGATTAGAGTATCGGTCGA
Ans: 3.74

Q: Give me measured binding signal, please, for this sequence: CTGACCTTTGCCCCCAGCCTCTCACAGTAGGCCTAGGGAGATTAGAGTATCGGTCGA
Ans: 6.87

Q: Give me measured binding signal, please, for this sequence: GAACTGAAAGAGACCTTTGACATCACCTAAGCCTAGGGAGATTAGAGTATCGGTCGA
Ans: 2.04

Q: Give me measured binding signal, please, for this sequence: TGCACTTTGACCGCTCATTTGATCCTCACAGCCTAGGGAGATTAGAGTATCGGTCGA
Ans: 3.87

Q: Give me measured binding signal, please, for this sequence: AGGAGGCACTGATAAGCGTATTTCAACCTTGCCTAGGGAGATTAGAGTATCGGTCGA
Ans: 0.384

Q: Give me measured binding signal, please, for this sequence: AGAGCAGGAATTCTGATCTTTGACCTCTCCGCCTAGGGAGATTAGAGTATCGGTCGA
Ans: 7.34

Q: Give me measured binding signal, please, for this sequence: TGCCCAGCTTGAATCACTCACTGACCTCTTGCCTAGGGAGATTAGAGTATCGGTCGA
Ans: 3.98

Q: Give me measured binding signal, please, for this sequence: CCACTTTGAATCAGGAGAGCATCTGAGTGTGCCTAGGGAGATTAGAGTATCGGTCGA
Ans: 1.15

Q: Give me measured binding signal, please, for this sequence: GAACTCTGACCTTTGCCCCCAGCCTCTCACGCCTAGGGAGATTAGAGTATCGGTCGA
Ans: 8.72

---

- subject-of-test: HNF4alpha2 (COS-7 nuclear extract) (Homo sapiens, UniProt P41235 1-474)
- Sequence: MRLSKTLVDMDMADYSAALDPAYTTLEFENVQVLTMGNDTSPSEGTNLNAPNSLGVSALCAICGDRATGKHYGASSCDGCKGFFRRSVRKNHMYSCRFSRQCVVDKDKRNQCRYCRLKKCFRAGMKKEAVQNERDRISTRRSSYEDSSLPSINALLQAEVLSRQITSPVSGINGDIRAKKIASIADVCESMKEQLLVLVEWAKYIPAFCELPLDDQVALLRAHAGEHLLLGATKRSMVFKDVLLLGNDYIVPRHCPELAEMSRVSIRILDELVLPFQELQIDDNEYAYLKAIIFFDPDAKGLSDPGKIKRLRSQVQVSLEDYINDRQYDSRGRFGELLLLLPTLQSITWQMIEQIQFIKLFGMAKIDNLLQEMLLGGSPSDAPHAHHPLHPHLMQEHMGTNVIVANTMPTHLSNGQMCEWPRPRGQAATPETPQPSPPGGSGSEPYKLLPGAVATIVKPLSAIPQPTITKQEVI
- test-summary: protein-binding microarray; COS-7 nuclear extract on double-stranded Agilent 4x180k PBM; binding buffer, salt, pH and temperature not given in the material; high values mean tight binding
- condition-set: chain copies: 2; label: 3' end of strand 1 on the slide; dsDNA, one strand shown
The full ranking holds about 18,000 sequences; the median of “log2 normalized intensity” is about 0.39, and the highest 2% start at about 6.6. Only a selection was taken, and the highest values are over-represented in it overall.
I'd appreciate it if you could supply binding signal values for the items below.
Express it in log2 normalized intensity; write the number only.

Q: Give me measured binding signal, please, for this sequence: GCTGGAACTCCTCCGGTCAAGATCAAGTGGGCCTAGGGAGATTAGAGTATCGGTCGA
Ans: 0.207

Q: Give me measured binding signal, please, for this sequence: TGCCCTTTGCCTGGTGATCTTTGTTAGACCGCCTAGGGAGATTAGAGTATCGGTCGA
Ans: 2.7

Q: Give me measured binding signal, please, for this sequence: ATCTCAGCTCACTGTAACCTTTGCCCCCCTGCCTAGGGAGATTAGAGTATCGGTCGA
Ans: 8.75

Q: Give me measured binding signal, please, for this sequence: AGCCTTATTCTTTGATCTCTTATCACCCTGGCCTAGGGAGATTAGAGTATCGGTCGA
Ans: 1.86

Q: Give me measured binding signal, please, for this sequence: AGACCCTTATCAGTAGTTCTCCTTTCTGCCGCCTAGGGAGATTAGAGTATCGGTCGA
Ans: 1.39

Q: Give me measured binding signal, please, for this sequence: TGGTGCTATCTTTGCTCACTGTAACCTTTGGCCTAGGGAGATTAGAGTATCGGTCGA
Ans: 3.78

Q: Give me measured binding signal, please, for this sequence: TTTGCTCACTGTAACCTTTGCCCCCCAAGTGCCTAGGGAGATTAGAGTATCGGTCGA
Ans: 8.54

Q: Give me measured binding signal, please, for this sequence: AGGGTGACCCCTGTGGTACAGGCAGTGACTGCCTAGGGAGATTAGAGTATCGGTCGA
Ans: 1.48

Q: Give me measured binding signal, please, for this sequence: AAAGGTCATATCCAAAATATTTGCAGTGAGGCCTAGGGAGATTAGAGTATCGGTCGA
Ans: 1.79

This collection of values is drawn from paper PMC10726135.
